test system: Mus musculus; test: Mean survival time against Plasmodium yoelii in mice (Mus musculus) which died during 28-day observation period at 96 mg/kg/day orally; assay type: functional; conditions: route oral
Observation Type: MST (days)
Answers are plain numbers, in days.

Example cases with answers are listed next.
                                   molecule  tested_target  observation_type  measure_unit  experimental_value
0  C=C(c1ccccc1)C1COC2(CCC(Nc3ccc(NC(C)=O)cc3)CC2)OO1 (stereo not given)   Mus musculus               MST          days                 9.8
1  C=C(c1ccccc1)C1COC2(CCC(Nc3ccccc3)CC2)OO1 (stereo not given)   Mus musculus               MST          days                12.2
2  C=C(c1ccc(-c2ccccc2)cc1)C1COC2(CCC(Nc3ccc(NC(C)=O)cc3)CC2)OO1 (stereo not given)   Mus musculus               MST          days                 8.4

Would you kindly look at the next entry?
Looking for the measured MST of C=C(c1ccccc1)C1COC2(CCC(Nc3cc(Cl)cc(Cl)c3)CC2)OO1 (stereo not given) , can you help?
16.5

====

system: Mus musculus; test: Mean survival time against Plasmodium yoelii in mice (Mus musculus) which died during 28-day observation period at 96 mg/kg/day orally; assay type: functional; settings: route oral
Provide the reported MST of each item.

Example cases with answers are listed next.
>>> df
                                   compound  tested_target  experimental_value
0  C=C(c1ccc(-c2ccccc2)cc1)C1COC2(CCC(=O)CC2)OO1 (configuration not stated)   Mus musculus           10.2 days
1  C=C(c1ccc(-c2ccccc2)cc1)C1COC2(CCC(Nc3cc(Cl)cc(Cl)c3)CC2)OO1 (configuration not stated)   Mus musculus           10.2 days
2  C=C(c1ccc(-c2ccccc2)cc1)C1COC2(CCC(Nc3ccc(OC)cc3)CC2)OO1 (configuration not stated)   Mus musculus           11.1 days
3  C=C(c1ccccc1)C1COC2(CCC(=O)CC2)OO1 (configuration not stated)   Mus musculus            7.2 days
4  C=C(c1ccc(-c2ccccc2)cc1)C1COC2(CCC(Nc3cccc4ccccc34)CC2)OO1 (configuration not stated)   Mus musculus           14.8 days
5  C=C(c1ccccc1)C1COC2(CCC(Nc3cccc4ccccc34)CC2)OO1 (configuration not stated)   Mus musculus           19.5 days

Looking for the measured MST of C=C(c1ccccc1)C1COC2(CCC(Nc3ccc(OC)cc3)CC2)OO1 (configuration not stated) , can you help?
12.4 days

====

assay: Number of survivals against Plasmodium yoelii in mice (Mus musculus) (out of 5) at 96 mg/kg/day orally on day 28; assay type: organism-based; set-up: route oral; settings: in vivo, po
Observation Type: No. of survivals
Numbers only.

>>> df
                                   molecule  experimental_value
0  C=C(c1ccc(-c2ccccc2)cc1)C1COC2(CCC(Nc3cc(Cl)cc(Cl)c3)CC2)OO1 (configuration not stated)                   0
1  C=C(c1ccccc1)C1COC2(CCC(Nc3ccccc3)CC2)OO1 (configuration not stated)                   0
2  C=C(c1ccc(-c2ccccc2)cc1)C1COC2(CCC(Nc3ccc(NC(C)=O)cc3)CC2)OO1 (configuration not stated)                   0

Take each entry in turn and give its No. of survivals.
1. C=C(c1ccccc1)C1COC2(CCC(Nc3cccc4ccccc34)CC2)OO1 (configuration not stated)
2. C=C(c1ccccc1)C1COC2(CCC(=O)CC2)OO1 (configuration not stated)
3. C=C(c1ccccc1)C1COC2(CCC(Nc3cc(Cl)cc(Cl)c3)CC2)OO1 (configuration not stated)
4. C=C(c1ccc(-c2ccccc2)cc1)C1COC2(CCC(Nc3ccc(OC)cc3)CC2)OO1 (configuration not stated)

0
0
2
0
